Field: GI50. Provide a value for each of the molecules that follow.
system: T-47D breast; assay: NCI tumour cell line growth inhibition, 48 h
*1 amine or outer side, *2 acyl side, *3 side chain or, on linkers, in order; H or OH if unused. Where a SMILES comes first, the peptide text is derived from it. Bridges are numbered along the chain shown (N, C = ends). [ ]: non-standard residue; d: D form. The star is where a group is joined. Phe(3-Me) = Cc1cccc(C[C@H](N)C(=O)O)c1; NH(4-Cl-2-F-phenyl) = Fc1cc(Cl)ccc1N*; Pro(4R-Me) = C[C@H]1CN[C@H](C(=O)O)C1; Propanoyl(3-NMe2) = CN(C)CCC(=O)*; Hyp = O=C(O)[C@@H]1C[C@@H](O)CN1; aThr = C[C@H](O)[C@H](N)C(=O)O; Pip = O=C(O)[C@@H]1CCCCN1; CO = O=C([*:1])[*:2]

Which measured GI50 belongs to CC(C)[C@@H]1CC[C@@H]2[C@@H]1[C@H](OC(=O)/C=C/c1ccccc1)[C@]1(C(C)C)C[C@@H](OC(=O)CO)[C@@]2(C)O1 , tested on T-47D breast?
5.27 µM

Try this molecule too: COc1cc(NC(N)=NCCC(C)(C)c2ccc(C(F)(F)F)cc2)ncc1C#N
1.51 µM

Try this molecule too: C[C@]12CC[C@H]3[C@@H](C[C@@H]4N=C(c5ccc(O)cc5)S[C@@]45C[C@H](O)CC[C@]35C)[C@@H]1CC[C@@H]2O
10.3 µM

Try this molecule too: Cc1ccccc1/C=C1\CN(C(=O)OC(C)(C)C)C/C(=C\c2ccccc2C)C1=O
3.78 µM

Try this molecule too: Cc1cccc(C[C@H](NC(=O)Nc2ccc(Cl)cc2F)C(=O)N[C@@H]2C(=O)N3C[C@H](OC(=O)CCN(C)C)C[C@H]3C(=O)N3CCCC[C@H]3C(=O)N[C@@H](C)C(=O)N3C[C@H](C)C[C@H]3C(=O)O[C@H]2C)c1 ({NH(4-Cl-2-F-phenyl)-CO}-[Phe(3-Me)][aThr][Hyp](Propanoyl(3-NMe2))[Pip]A[Pro(4R-Me)]; ester 2-C)
0.448 µM

Try this molecule too: COC(=O)c1ccc(C2SCC(=O)N2NC(=O)C(O)c2ccccc2)cc1 (stereo unspecified)
> 100 µM

Reference source: PubChem BioAssay (NCI)
